Below: a set of entries, each annotated with reported log10 EC50.
TGT: FPR1 (Homo sapiens, UniProt P21462)
Sequence (P21462 1-350): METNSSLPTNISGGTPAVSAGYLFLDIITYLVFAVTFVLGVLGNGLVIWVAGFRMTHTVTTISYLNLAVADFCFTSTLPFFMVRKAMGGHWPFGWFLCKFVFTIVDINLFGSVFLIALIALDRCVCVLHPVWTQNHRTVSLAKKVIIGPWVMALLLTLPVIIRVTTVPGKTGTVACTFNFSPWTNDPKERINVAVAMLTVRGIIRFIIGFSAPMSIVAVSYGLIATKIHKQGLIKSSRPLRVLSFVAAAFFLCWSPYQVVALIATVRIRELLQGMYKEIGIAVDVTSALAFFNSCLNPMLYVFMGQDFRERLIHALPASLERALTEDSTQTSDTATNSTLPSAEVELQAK
ASSAY SUMMARY: compound-induced calcium activity on FLIPR Tetra, CHO-Gα16 cells stably expressing FPR1
COND: CHO-Gα16 cells stably expressing FPR1; calcium activity; tested at 0.61 to 10,000 nM; read-out: FPR1 Ga16-CHO EC50
Method: CHO-Gα16 cells stably expressing FPR1 or FPR2 were cultured in (Ham's F12 nutrient media, 10% fetal bovine serum, 1% PSA (penicillin, streptomycin, amphotericin B antiobiotic/antimycotic), 400 μg/ml geneticin and 50 μg/ml hygromycin). In general, the day before the experiment, 18,000 cells/well were plated in a 384-well clear bottom poly-D-lysine coated plate. […] Results are expressed as EC50 (nM) and efficacy values.
A value of 2 here means EC50 of 100 in nM, since values are log10.

* CC(C)CC(C(=O)O)C(C)NC(=O)Nc1ccc(Br)cc1 (single isomer, unassigned) [Compound 103] | -0.28
* CC(C)CC(C(=O)O)C(C)NC(=O)Nc1ccc(Br)cc1 (single isomer, unassigned) [Compound 107] | 0.23
* CC(C)CC(C(=O)OC(C)(C)C)C(C)NC(=O)Nc1ccc(Br)cc1 (single isomer, unassigned) [Compound 100] | 3.15
* CC(C)CC(C(=O)O)C(C)NC(=O)Nc1ccc(Br)cc1 (single isomer, unassigned) [Compound 105] | 1.11
* CC(C)CC(C(=O)O)C(C)NC(=O)Nc1ccc(Br)cc1 (single isomer, unassigned) [Compound 104] | 1.71

Lookup: Quick check: log10 EC50 of CC(C)CC(C(=O)O)C(C)NC(=O)Nc1ccc(Br)cc1 (single isomer, unassigned) [Compound 102] ?
Found: 1.68

Lookup: Quick check: log10 EC50 of CC(C)CC(C(=O)O)C(C)NC(=O)Nc1ccc(Br)cc1 (single isomer, unassigned) [Compound 106] ?
Found: 1.99
